Target: T1, human FLT3 (hFLT3) (human, UniProt P36888 27-543)
T1 construct: also called huFlt3; Fms-Like Tyrosine Kinase 3
T1 sequence (looked up): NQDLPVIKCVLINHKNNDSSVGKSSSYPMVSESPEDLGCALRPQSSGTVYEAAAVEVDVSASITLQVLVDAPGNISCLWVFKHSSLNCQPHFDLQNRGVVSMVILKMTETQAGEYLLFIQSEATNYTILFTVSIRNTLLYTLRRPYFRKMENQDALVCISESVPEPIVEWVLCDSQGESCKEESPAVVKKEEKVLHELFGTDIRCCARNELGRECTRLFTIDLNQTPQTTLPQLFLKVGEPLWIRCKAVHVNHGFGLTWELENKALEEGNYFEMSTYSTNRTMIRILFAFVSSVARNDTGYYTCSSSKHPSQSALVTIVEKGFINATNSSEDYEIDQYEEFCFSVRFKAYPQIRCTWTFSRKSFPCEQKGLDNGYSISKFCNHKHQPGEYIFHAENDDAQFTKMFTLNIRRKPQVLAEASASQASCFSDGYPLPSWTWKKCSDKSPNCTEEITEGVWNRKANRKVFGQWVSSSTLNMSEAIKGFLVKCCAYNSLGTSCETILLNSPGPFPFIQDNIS
Assay: SPR (Biacore T200), 37 C; IgG captured on anti-human Fc, hFLT3 as analyte
Label scheme for kon: lower than 100000 M⁻¹ s⁻¹ is no (0), 100000 M⁻¹ s⁻¹ and above is yes (1).

>>> classification("P4H11 (IgG format) (antibody, V domains shown, IgG format, captured by anti-human Fc) VH: EVQLLESGGGLVQPGGSLRLSCAASGFTFSSYAMNWVRQAPGKGLEWVSSISGGGRSTYYADSVKGRFTISRDNSKNTLYLQMNSLRAEDTAVYYCARDLSPSDVGWGYGFDIWGQGTLVTVSS VL: EIVLTQSPGTLSLSPGERATLSCRASQSVSNTYLAWYQQKPGQAPRLLIYDTSSRATGIPDRFSGSGSGTDFTLTISRLEPEDFAVYYCQQYGSSLTFGQGTKVEIK")
"no (0)"
>>> classification("P12B6 (IgG format) (antibody, V domains shown, IgG format, captured by anti-human Fc) VH: QVQLVQSGAEVKKPGSSVKVSCKASGGTFMSYAISWVRQAPGQGLEWMGGIIPIFGIANYAQKFQGRVTITADKSTSTAYMELSSLRSEDTAVYYCARETLIYPIPFELWGQGTLVTVSS VL: EIVLTQSPGTLSLSPGERATLSCRASQIVSSSYLAWYQQKPGQAPRLLIYGASSRASGIPDRFSGSGSGTDFTLTISRLEPEDFAVYYCQQYGGSPYTFGQGTKVEIK")
"yes (1)"
>>> classification("P14G2 (IgG format) (antibody, V domains shown, IgG format, captured by anti-human Fc) VH: EVQLLESGGGLVQPGGSLRLSCAASGFTFSNYVMNWVRQAPGKGLEWVSAISGSGATTYYADSVKGRFTISRDNSKNTLYLQMNSLRAEDTAVYYCVSGLWAGGIWGQGTLVTVSS VL: DIQMTQSPSSLSASVGDRVTITCRASQSISSYLNWYQQKPGKAPKLLIYDASDLQRGVPSRFSGSGSGTDFTLTISSLQPEDFATYYCQQSYNTPWTFGQGTKVEIK")
"yes (1)"
>>> classification("P1B4 (IgG format) (antibody, V domains shown, IgG format, captured by anti-human Fc) VH: QVQLVQSGAEVKKPGSSVKVSCKASGGVFSRYALSWVRQAPGQGLEWMGGIIPMLGFANYAQKFQGRVTITADESTSTAYMELSSLRSEDTAVYYCATLDFGALDYWGQGTLVTVSS VL: EIVLTQSPGTLSLSPGERATLSCRASQSVPNEQLAWYQQKPGQAPRLLIYDASSRATGIPDRFSGSGSGTDFTLTISRLEPEDFAVYYCQQYGSPPLTFGQGTKVEIK")
"yes (1)"
>>> classification("P9F1 (IgG format) (antibody, V domains shown, IgG format, captured by anti-human Fc) VH: EVQLLESGGGLVQPGGSLRLSCAASGFIFSSFAMSWVRQAPGKGLEWVSDISGSGASTYYADSVKGRFTISRDNSKNTLYLQMNSLRAEDTAVYYCASASGGSGSYWPYMDPWGQGTLVTVSS VL: QSVLTQPPSASGTPGQRVTISCSGSGSNIGSNYVYWYQQLPGTAPKLLIYRNNQRPSGVPDRFSGSKSGTSASLAISGLRSEDEADYYCAAWDGSLSRPVFGTGTKLTVL")
"yes (1)"
>>> classification("P3E10 (IgG format) (antibody, V domains shown, IgG format, captured by anti-human Fc) VH: QVQLVQSGAEVKKPGSSVKVSCKASGGTFSSYAIQWVRQAPGQGLEWMGGIVGSWGLANYAQKFQGRVTITTDKSTSTAYMELSSLRSEDTAVYYCATSAFGELASWGQGTLVTVSS VL: EIVLTQSPGTLSLSPGERATLSCRASQSVPSSQLAWYQQKPGQAPRLLIYDASSRATGIPDRFSGSGSGTDFTLTISRLEPEDFAVYYCQQYGSSPLTFGQGTKVEIK")
"yes (1)"
>>> classification("P8B6 (IgG format) (antibody, V domains shown, IgG format, captured by anti-human Fc) VH: QVQLVQSGAEVKKPGSSVKVSCKASGGTFSSYAVSWVRQAPGQGLEWMGGIIPIFGIANYAQKFQGRVTITADTSTSTAYMELSSLRSEDTAVYYCAIEGIGGDLRYDGYDAWGQGTLVTVSS VL: EIVLTQSPGTLSLSPGERATLSCRASQSVSHSYLAWYQQKPGQAPRLLIYGASFRAAGIPDRFSGSGSGTDFTLTISRLEPEDFAVYYCQQYGSDPYTFGQGTKVEIK")
"no (0)"
>>> classification("P4C7 (IgG format) (antibody, V domains shown, IgG format, captured by anti-human Fc) VH: QVQLVQSGAEVKKPGSSVKVSCKASGGTFSSYTISWVRQAPGQGLEWMGGIIPAFGIANYAQKFQGRVTITADKSTSTAYMELSSLRSEDTAVYYCAKGGSYSLDYFDIWGQGTLVTVSS VL: EIVLTQSPGTLSLSPGERATLSCRASQYVSASLLAWYQQKPGQAPRLLIYGASTRATGIPDRFSGSGSGTDFTLTISRLEPEDFAVYYCQQYARSSTFGQGTKVEIK")
"yes (1)"
>>> classification("P15F7 (IgG format) (antibody, V domains shown, IgG format, captured by anti-human Fc) VH: EVQLLESGGGLVQPGGSLRLSCAASGFTFNNYAMNWVRQAPGKGLEWVSVISGSGGTTYYADSVKGRFTISRDNSKNTLYLQMNSLRAEDTAVYYCASGIWDLRYWGQGTLVTVSS VL: DIQMTQSPSSLSASVGDRVTITCRASQSISTYLNWYQQKPGKAPKLLIYAASNLQSGVPSRFSGSGSGTDFTLTISSLQPEDFATYYCQQSYSIPLTFGQGTKVEIK")
"yes (1)"

Source listed as patent US20230059489A1.
